Give protein stability index for every item shown.
B1: VPS39 (parent)
chain: TTLLKCYLHTNVALVAPLLRLENN

variants of: B1; assay: protein stability index of a GFP-peptide fusion (GPS, HEK-293T) (PSI 1-6); higher = more stable; conditions: c terminus: a fixed tail appended;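 also: lentivirally expressed fusions sorted by FACS into six bins by GFP to DsRed ratio, PSI derived from sequencing read proportions per bin multiplied by bin number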

Take a look at these entries with their results.
MUTATION_STRING	protein stability index
T10W	1.94
L4T	2.83
P17M	1.17
L21Y	1.84
L3R	2.57
L3N	3.03
R20W	2.11
V15I	2.17

Here are 3 variants. What values of protein stability index were reported for them?
1. T1Y
2. E22K
3. C6N

1: 3.27; 2: 1.79; 3: 1.91
